From: patent US20200002405A1

Entries and their IC80 (neutralization) values follow.
- target_or_system: T1, LASV Josiah (lineage IV) glycoprotein, full-length GP (Lassa virus, Josiah strain, UniProt P08669 2-491)
- T1 sequence: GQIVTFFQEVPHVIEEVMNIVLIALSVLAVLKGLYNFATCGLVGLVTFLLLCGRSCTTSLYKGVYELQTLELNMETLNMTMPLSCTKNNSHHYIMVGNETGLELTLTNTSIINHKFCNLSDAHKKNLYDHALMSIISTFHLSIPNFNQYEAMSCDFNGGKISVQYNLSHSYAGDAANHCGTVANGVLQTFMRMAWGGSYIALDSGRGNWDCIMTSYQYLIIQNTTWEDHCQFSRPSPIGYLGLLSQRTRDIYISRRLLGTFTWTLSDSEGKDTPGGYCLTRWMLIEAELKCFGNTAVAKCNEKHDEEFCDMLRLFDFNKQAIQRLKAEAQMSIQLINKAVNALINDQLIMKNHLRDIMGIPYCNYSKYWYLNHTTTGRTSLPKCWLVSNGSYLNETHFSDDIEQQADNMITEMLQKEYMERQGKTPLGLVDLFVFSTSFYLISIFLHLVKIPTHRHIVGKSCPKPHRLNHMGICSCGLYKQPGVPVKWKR
- measurement_protocol: cell-based or functional assay
Report only the number, with the unit µg/mL understood.

binder	IC80 (neutralization) / µg/mL
37.2D (antibody, V domains shown) VH: EVQLVQSGAEVKKPGASVKVSCKASGYTFTKYGISWVRQAPGQGLEWMGWISAFNGYTRYGQRFQGKVTMTTDTSTNTASLEVRTLTSNDTAVYYCARQYPDQYSSSGWPRLFAMDVWGQGTTVIVSP VL: ETTLTQSPATLSVSPGETATLSCRASQNVINNLAWYQQKPGQAPRLLIYGASTRATGIPARFSGSGSGTEFTLTISSMQSEDFAVYYCQQYNDWPRSFGQGTRLDIRR	1.98

Item under review: 8.11G (antibody, V domains shown) VH: QVQLQESGPGLVKPSETLSLTCSISGVSTRNYYWSWIRQSPGKGLEWIGYIFNIGTTNYNPSLKSRLTISVDTSKNQFSLKITSVTAADTAVYYCASGFEYGDYTFDYWGQGTPVTVSS VL: EIVLTQSPATLSVSPGGRASLSCRASQSIGDKLSWYQQKPGQAPRLVIYGAYTRATDISPRFSGSRSGTDFNLTISRMQSGDFAVYFCQQYENWPRTFGQGTKLEIKR . Reported IC80 (neutralization)?
1.74
